Hey, just so you know, these numbers are from patent US11807693B2.

# EXPERIMENTAL PROTOCOL: In vitro stability in rat liver homogenate
# Assay type: in vitro ADME
# ASSAY CONTEXT: tissue homogenate
REPORTED ENDPOINT: remaining at 4 h, 5 μM (%)
Write the value in % as a bare number.

stdin: Would you mind telling me what remaining at 4 h, 5 μM value was observed for CCCCCCCCCCCCC(=O)N[C@@H](CCC(=O)NCCOCCOCC(=O)NCCOCCOCC(=O)N[C@@H](CCC(N)=O)C(=O)N[C@@H](CCCCNC(=N)N)C(=O)N1CCC[C@H]1C(=O)N[C@@H](CCCCNC(=N)N)C(=O)N[C@@H](CC(C)C)C(=O)N[C@@H](CO)C(=O)N[C@@H](Cc1c[nH]cn1)C(=O)N[C@@H](CCCCN)C(=O)NCC(=O)N1CCC[C@H]1C(=O)N[C@@H](CCCC)C(=O)N1CCC[C@H]1C(=O)N[C@@H](Cc1ccc(Cl)cc1)C(=O)O)C(=O)O ?
stdout: 0
